K by entry:
species: Rattus norvegicus; experiment: Open TG-GATES - Regimen: Single; type: toxicity, organism-based, Sprague-Dawley; design: regimen Single, gender Male, age 6 weeks; conditions: in vivo, po, 0 mg/kg, 9 h, tissue Plasma, route gavage, dose level Control

Reference set (5 entries):
> print(dat)
                                   molecule  property.measured        val
1  C[C@](N)(Cc1ccc(O)c(O)c1)C(=O)O [METHYLDOPA]                  K  4.4 meq/L
2  CCc1oc2ccccc2c1C(=O)c1cc(I)c(O)c(I)c1 [BENZIODARONE]                  K  4.5 meq/L
3  O=C(N[C@H](CO)[C@H](O)c1ccc([N+](=O)[O-])cc1)C(Cl)Cl [CHLORAMPHENICOL]                  K  4.1 meq/L
4  CC(=O)Oc1cc(C(C)C)c(OCCN(C)C)cc1C [MOXISYLYTE]                  K  4.5 meq/L
5           Oc1ncnc2[nH]ncc12 [ALLOPURINOL]                  K  4.7 meq/L

# next molecule below
Data request: Record request: K value, item CN1C(=O)OC(C)(C)C1=O [TRIMETHADIONE]
Data returned: 3.9 meq/L

----------
organism: Rattus norvegicus; experiment: Open TG-GATES - Regimen: Single; format: toxicity, organism-based, Sprague-Dawley; design: regimen Single, gender Male, age 6 weeks; conditions: in vivo, po, 0 mg/kg, 3 h, tissue Liver, route gavage, dose level Control
Property Measured: LIVER (g)
Numeric only. Scale: g

> print(dat)
                                   compound  unit.label   val
1         CC(=O)Oc1cc(C(C)C)c(OCCN(C)C)cc1C           g   9.9
2                       CCSCC[C@H](N)C(=O)O           g  10.3
3           C[C@](N)(Cc1ccc(O)c(O)c1)C(=O)O           g     8
4  C[C@]12CCC(=O)C=C1CC[C@@H]1[C@@H]2CC[C@@]2(C)[C@H]1CC[C@]2(C)O           g   8.7

Data request: Record request: LIVER value, item CC(=N)S [THIOACETAMIDE]
Data returned: 8.7

----------
Plat by entry:
species on record: Rattus norvegicus; experiment: Open TG-GATES - Regimen: Daily Repeat; type: toxicity, organism-based, Sprague-Dawley; parameters: regimen Daily Repeat, gender Male, age 6 weeks; conditions: in vivo, po, 300 mg/kg, […], tissue Blood, route gavage, dose level Middle, time 28 day

Reference set (3 entries):
> print(dat)
                                   compound             val
1  O=C(N[C@H](CO)[C@H](O)c1ccc([N+](=O)[O-])cc1)C(Cl)Cl  110.4 x10_4/uL
2                   CC(C)(S)[C@@H](N)C(=O)O  132.7 x10_4/uL
3                            O=C(O)c1cccnc1  100.4 x10_4/uL

# next compound below
Data request: Record request: Plat value, item CCN1CCCC1CNC(=O)c1cc(S(N)(=O)=O)ccc1OC (centres undefined) [SULPIRIDE]
Data returned: 114.4 x10_4/uL

----------
organism: Rattus norvegicus; assay: Open TG-GATES - Regimen: Daily Repeat; assay type: toxicity, organism-based, Sprague-Dawley; design: regimen Daily Repeat, gender Male, age 6 weeks; details: in vivo, po, 100 mg/kg, […], tissue Plasma, route gavage, dose level Low, time 28 day
TG by entry:
Numeric only. Scale: mg/dL

Reference set (3 entries):
> print(dat)
                                   compound  property.measured    val
1                   CC(C)(S)[C@@H](N)C(=O)O                 TG  139.2
2  O=C(N[C@H](CO)[C@H](O)c1ccc([N+](=O)[O-])cc1)C(Cl)Cl                 TG   97.6
3  CCN1CCCC1CNC(=O)c1cc(S(N)(=O)=O)ccc1OC (centres undefined) [SULPIRIDE]                 TG    112

# next compound below
Data request: Record request: TG value, item O=C(O)c1cccnc1
Data returned: 158.8

----------
species on record: Rattus norvegicus; test: Open TG-GATES - Regimen: Daily Repeat; format: toxicity, organism-based, Sprague-Dawley; set-up: regimen Daily Repeat, gender Male, age 6 weeks; conditions: in vivo, po, 0 mg/kg, […], tissue Plasma, route gavage, dose level Control, time 7 day
Would you mind sorting the entries by LDH according to these classes? class 1: < 70 IU/L; class 2: ≥ 70 IU/L and < 100 IU/L; class 3: ≥ 100 IU/L

Please review the following examples before continuing.
> print(dat)
                                   compound  label.value
1  CC(C)C(=O)Nc1ccc([N+](=O)[O-])c(C(F)(F)F)c1 [FLUTAMIDE]      class 3
2      CN1C(=O)OC(C)(C)C1=O [TRIMETHADIONE]      class 3
3  O=C(N[C@H](CO)[C@H](O)c1ccc([N+](=O)[O-])cc1)C(Cl)Cl [CHLORAMPHENICOL]      class 1

Shifting focus to the compound that follows.
Data request: Hi, small favor: classify CCSCC[C@H](N)C(=O)O [ETHIONINE] by its LDH when you get a moment.
Data returned: class 3

----------
Cl by entry:
species on record: Rattus norvegicus; experiment: Open TG-GATES - Regimen: Single; type: toxicity, organism-based, Sprague-Dawley; design: regimen Single, gender Male, age 6 weeks; conditions: in vivo, po, 0 mg/kg, 9 h, tissue Plasma, route gavage, dose level Control
Numeric only. Scale: meq/L

Reference set (2 entries):
> print(dat)
                                   compound    val
1                            O=C(O)c1cccnc1    104
2  C[C@]12CCC(=O)C=C1CC[C@@H]1[C@@H]2CC[C@@]2(C)[C@H]1CC[C@]2(C)O  105.2

Data request: Record request: Cl value, item O=C(N[C@H](CO)[C@H](O)c1ccc([N+](=O)[O-])cc1)C(Cl)Cl
Data returned: 105.4

Data request: Record request: Cl value, item CCSCC[C@H](N)C(=O)O
Data returned: 102.6

Data request: Record request: Cl value, item CN1C(=O)OC(C)(C)C1=O
Data returned: 108

Data request: Record request: Cl value, item CCc1oc2ccccc2c1C(=O)c1cc(I)c(O)c(I)c1
Data returned: 105.6

Data request: Record request: Cl value, item CC(C)C(=O)Nc1ccc([N+](=O)[O-])c(C(F)(F)F)c1 [FLUTAMIDE]
Data returned: 103.4

----------
species on record: Rattus norvegicus; assay: Open TG-GATES - Regimen: Daily Repeat; type: toxicity, organism-based, Sprague-Dawley; set-up: regimen Daily Repeat, gender Male, age 6 weeks; settings: in vivo, po, 300 mg/kg, […], tissue Plasma, route gavage, dose level Middle, time 7 day
TG by entry:
Numeric only. Scale: mg/dL

> print(dat)
                                   compound  unit.label    val
1  O=C(N[C@H](CO)[C@H](O)c1ccc([N+](=O)[O-])cc1)C(Cl)Cl       mg/dL  102.4
2  CCN1CCCC1CNC(=O)c1cc(S(N)(=O)=O)ccc1OC (centres undefined) [SULPIRIDE]       mg/dL  114.4
3                            O=C(O)c1cccnc1       mg/dL  135.8

# next compound below
Data request: Record request: TG value, item CC(C)(S)[C@@H](N)C(=O)O
Data returned: 113.4

----------
species: Rattus norvegicus; experiment: Open TG-GATES - Regimen: Daily Repeat; format: toxicity, organism-based, Sprague-Dawley; set-up: regimen Daily Repeat, gender Male, age 6 weeks; details: in vivo, po, 1000 mg/kg, […], tissue Plasma, route gavage, dose level High, time 28 day
Property Measured: BUN (mg/dL)
Numeric only. Scale: mg/dL

Reference set (3 entries):
> print(dat)
                                   compound   val
1                            O=C(O)c1cccnc1  17.8
2  CCN1CCCC1CNC(=O)c1cc(S(N)(=O)=O)ccc1OC (centres undefined) [SULPIRIDE]    18
3                   CC(C)(S)[C@@H](N)C(=O)O  14.2

# next compound below
Data request: Record request: BUN value, item O=C(N[C@H](CO)[C@H](O)c1ccc([N+](=O)[O-])cc1)C(Cl)Cl
Data returned: 17

Reference for the values: ChEMBL document CHEMBL3885861
